Target: human RORγt LBD (Homo sapiens)
Sequence (P51449 258-518): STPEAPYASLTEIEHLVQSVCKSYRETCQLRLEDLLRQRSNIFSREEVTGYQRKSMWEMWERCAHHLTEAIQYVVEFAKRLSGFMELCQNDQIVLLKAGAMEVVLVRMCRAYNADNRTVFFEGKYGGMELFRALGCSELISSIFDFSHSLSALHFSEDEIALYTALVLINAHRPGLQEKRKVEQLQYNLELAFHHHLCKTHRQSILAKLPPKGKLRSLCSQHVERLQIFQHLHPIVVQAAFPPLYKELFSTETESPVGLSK
Assay: RORγt reporter assay (GAL4-RORγt LBD luciferase, HEK293T cells)
Conditions: HEK293T cells, 24 hours compound treatment, firefly/renilla luciferase ratio
For each of the compounds below, state its IC50.
Your answer is read as nM, so omit the unit and give the number.

For the compound COc1c(-c2ccccc2)c(Cl)nc2ccc(C(O)(c3cnnn3C)c3cnc(C)n3C)cc12 (single isomer, unassigned) [Example 40c] , what IC50 is on record?
190

For the compound Cn1cncc1C(O)(c1ccc(Cl)cc1)c1ccc2nc(C(F)(F)F)c(-c3ccccc3)c(C#N)c2c1 (single isomer, unassigned) [Example 31c] , what IC50 is on record?
1600

For the compound CC(=O)N1CCC(C(O)(c2cccnc2)c2ccc3nc(C(F)(F)F)c(-c4ccccc4)c(C#N)c3c2)CC1 (single isomer, unassigned) [Example 30b] , what IC50 is on record?
49
